# experiment.notes: 10x dilution of soluble forms with standard IV solutions (pH, precipitate)
# Format: physicochemical
# condition: undiluted low-concentration Cpd B solution (26.2-52 mg/ml)
Entries and their pH of Solut. values follow.

{"columns": ["compound", "pH of Solut."],
 "data": [
  ["CCn1cc(C(=O)O)c(=O)c2cc(F)c(N3CCNCC3)nc21 [B L-Cysteic]", 2.96],
  ["CCn1cc(C(=O)O)c(=O)c2cc(F)c(N3CCNCC3)nc21 [B Isethionic]", 2.16],
  ["CCn1cc(C(=O)O)c(=O)c2cc(F)c(N3CCNCC3)nc21 [B L-Glutamic]", 4.95],
  ["CCn1cc(C(=O)O)c(=O)c2cc(F)c(N3CCNCC3)nc21 [B Methane Sulphonic]", 5.07]
]}

For the next question, use this compound.
Which pH of Solut. is listed for CCn1cc(C(=O)O)c(=O)c2cc(F)c(N3CCNCC3)nc21 [B L-Aspartic] ? 4.48

----------
# experiment.notes: Solubility of lyophilized and crystalline solids
# Type: physicochemical
# condition: CPD B salt, crystalline solid
outcome.measure: pH of Solution Cryst.
// keep it numeric: no unit symbol after the value

The following compounds have reported results that may help.
{"columns": ["compound", "pH of Solution Cryst."],
 "data": [
  ["CCn1cc(C(=O)O)c(=O)c2cc(F)c(N3CCNCC3)nc21 [B D-Gluconic]", 4.78],
  ["CCn1cc(C(=O)O)c(=O)c2cc(F)c(N3CCNCC3)nc21 [B L-Aspartic]", 4.80],
  ["CCn1cc(C(=O)O)c(=O)c2cc(F)c(N3CCNCC3)nc21 [B Hydrochloric]", 3]
]}

Which pH of Solution Cryst. is listed for CCn1cc(C(=O)O)c(=O)c2cc(F)c(N3CCNCC3)nc21 [B Isethionic] ? 2.84

Which pH of Solution Cryst. is listed for CCn1cc(C(=O)O)c(=O)c2cc(F)c(N3CCNCC3)nc21 [B L-Glutamic] ? 4.84

Which pH of Solution Cryst. is listed for CCn1cc(C(=O)O)c(=O)c2cc(F)c(N3CCNCC3)nc21 [B Methane Sulphonic] ? 3.15

----------
# Tested on: Pseudo. aeruginosa UI-18
# experiment.notes: Antibacterial activity, MIC
# Format: cell-based
# condition: based on content of compound A
outcome.measure: MIC µg/ml Pseudo. aeruginosa UI-18 (µg/mL)
Reply numerically in µg/mL, unit not repeated.

Which MIC µg/ml Pseudo. aeruginosa UI-18 is listed for CCn1cc(C(=O)O)c(=O)c2cc(F)c(N3CCNCC3)cc21 [Compound A, reference compound] ? 0.4

Which MIC µg/ml Pseudo. aeruginosa UI-18 is listed for CCn1cc(C(=O)O)c(=O)c2cc(F)c(N3CCNCC3)cc21 [A Gluconate] ? 0.2

Which MIC µg/ml Pseudo. aeruginosa UI-18 is listed for CCn1cc(C(=O)O)c(=O)c2cc(F)c(N3CCNCC3)cc21 [A Glutamate] ? 0.1

Which MIC µg/ml Pseudo. aeruginosa UI-18 is listed for CCn1cc(C(=O)O)c(=O)c2cc(F)c(N3CCNCC3)cc21 [A Galacturo-nate] ? 0.1

----------
# experiment.notes: Solubility screening procedure (concentration and pH of filtrate)
# Format: physicochemical
# condition: compound A + equimolar acid, amino acid or base in deionized water, room temperature, filtrate, UV assay
outcome.measure: Conc. of CPD A (µg/mL)
Reply numerically in µg/mL, unit not repeated.

The following compounds have reported results that may help.
{"columns": ["compound", "u", "value.reported"],
 "data": [
  ["CCn1cc(C(=O)O)c(=O)c2cc(F)c(N3CCNCC3)cc21 [A Succinic]", "µg/mL", 128000],
  ["CCn1cc(C(=O)O)c(=O)c2cc(F)c(N3CCNCC3)cc21 [A Maleic]", "µg/mL", 45100],
  ["CCn1cc(C(=O)O)c(=O)c2cc(F)c(N3CCNCC3)cc21 [A Choline]", "µg/mL", 53500],
  ["CCn1cc(C(=O)O)c(=O)c2cc(F)c(N3CCNCC3)cc21 [A L-Cysteic]", "µg/mL", 166000],
  ["CCn1cc(C(=O)O)c(=O)c2cc(F)c(N3CCNCC3)cc21 [A Diethanolamine]", "µg/mL", 7500]
]}

Which Conc. of CPD A is listed for CCn1cc(C(=O)O)c(=O)c2cc(F)c(N3CCNCC3)cc21 [A Oxalic] ? 19800

----------
# experiment.notes: 10x dilution of soluble forms with standard IV solutions (pH, precipitate)
# Type: physicochemical
# condition: concentrated Cpd B solution diluted 10x with Lactated Ringer's Solution; precipitate at 24 hr
outcome.measure: Solution 4 ppt 24 hr

The following molecules have reported results that may help.
{"columns": ["molecule", "value.reported"],
 "data": [
  ["CCn1cc(C(=O)O)c(=O)c2cc(F)c(N3CCNCC3)nc21 [B L-Aspartic]", "no"],
  ["CCn1cc(C(=O)O)c(=O)c2cc(F)c(N3CCNCC3)nc21 [B D-Gluconic]", "no"],
  ["CCn1cc(C(=O)O)c(=O)c2cc(F)c(N3CCNCC3)nc21 [B Lactic]", "yes"],
  ["CCn1cc(C(=O)O)c(=O)c2cc(F)c(N3CCNCC3)nc21 [B Isethionic]", "slight"],
  ["CCn1cc(C(=O)O)c(=O)c2cc(F)c(N3CCNCC3)nc21 [B Methane Sulphonic]", "yes"]
]}

Which Solution 4 ppt 24 hr is listed for CCn1cc(C(=O)O)c(=O)c2cc(F)c(N3CCNCC3)nc21 [B L-Cysteic] ? yes

Which Solution 4 ppt 24 hr is listed for CCn1cc(C(=O)O)c(=O)c2cc(F)c(N3CCNCC3)nc21 [B L-Glutamic] ? slight

Which Solution 4 ppt 24 hr is listed for CCn1cc(C(=O)O)c(=O)c2cc(F)c(N3CCNCC3)nc21 [B Acetic] ? yes

----------
# experiment.notes: Solubility screening procedure (concentration and pH of filtrate)
# Assay type: physicochemical
# condition: pH of the filtrate, CPD B solutions
Binning rule for recorded pH of Solution: low = under 3, intermediate = from 3 up to 8, high = 8 and over

{"columns": ["molecule", "discrete.label"],
 "data": [
  ["CCn1cc(C(=O)O)c(=O)c2cc(F)c(N3CCNCC3)nc21 [B L-Histidine]", "intermediate"]
]}

Pick a category. Item: CCn1cc(C(=O)O)c(=O)c2cc(F)c(N3CCNCC3)nc21 [B Tartaric] intermediate

Pick a category. Item: CCn1cc(C(=O)O)c(=O)c2cc(F)c(N3CCNCC3)nc21 [B L-Glutamic] intermediate

Pick a category. Item: CCn1cc(C(=O)O)c(=O)c2cc(F)c(N3CCNCC3)nc21 [B Diethanolamine] high

Pick a category. Item: CCn1cc(C(=O)O)c(=O)c2cc(F)c(N3CCNCC3)nc21 [B L-Lysine] high

Pick a category. Item: CCn1cc(C(=O)O)c(=O)c2cc(F)c(N3CCNCC3)nc21 [B L-Arginine] high

Pick a category. Item: CCn1cc(C(=O)O)c(=O)c2cc(F)c(N3CCNCC3)nc21 [B Isethionic] low

Pick a category. Item: CCn1cc(C(=O)O)c(=O)c2cc(F)c(N3CCNCC3)nc21 [B Citric] intermediate

----------
# experiment.notes: 10x dilution of soluble forms with standard IV solutions (pH, precipitate)
# Assay type: physicochemical
# condition: undiluted concentrated solution (at least 155 mg/ml) used for the Solution 1 dilution (for most salts for all four solutions)
outcome.measure: Concen. of Cpd B
Hi, when you answer, please include the unit after the number. Thanks!

Which Concen. of Cpd B is listed for CCn1cc(C(=O)O)c(=O)c2cc(F)c(N3CCNCC3)nc21 [B L-Aspartic] ? 165000 µg/mL

Which Concen. of Cpd B is listed for CCn1cc(C(=O)O)c(=O)c2cc(F)c(N3CCNCC3)nc21 [B Lactic] ? 221000 µg/mL

Which Concen. of Cpd B is listed for CCn1cc(C(=O)O)c(=O)c2cc(F)c(N3CCNCC3)nc21 [B Methane Sulphonic] ? 178000 µg/mL

Which Concen. of Cpd B is listed for CCn1cc(C(=O)O)c(=O)c2cc(F)c(N3CCNCC3)nc21 [B L-Cysteic] ? 221000 µg/mL

Which Concen. of Cpd B is listed for CCn1cc(C(=O)O)c(=O)c2cc(F)c(N3CCNCC3)nc21 [B L-Glutamic] ? 160000 µg/mL

Which Concen. of Cpd B is listed for CCn1cc(C(=O)O)c(=O)c2cc(F)c(N3CCNCC3)nc21 [B Isethionic] ? 220000 µg/mL

Which Concen. of Cpd B is listed for CCn1cc(C(=O)O)c(=O)c2cc(F)c(N3CCNCC3)nc21 [B D-Gluconic] ? 168000 µg/mL

Which Concen. of Cpd B is listed for CCn1cc(C(=O)O)c(=O)c2cc(F)c(N3CCNCC3)nc21 [B Acetic] ? 195000 µg/mL

Source listed as patent EP0067666A1.
